- Test System: UniProt:P08684
- Sequence (P08684 whole entry): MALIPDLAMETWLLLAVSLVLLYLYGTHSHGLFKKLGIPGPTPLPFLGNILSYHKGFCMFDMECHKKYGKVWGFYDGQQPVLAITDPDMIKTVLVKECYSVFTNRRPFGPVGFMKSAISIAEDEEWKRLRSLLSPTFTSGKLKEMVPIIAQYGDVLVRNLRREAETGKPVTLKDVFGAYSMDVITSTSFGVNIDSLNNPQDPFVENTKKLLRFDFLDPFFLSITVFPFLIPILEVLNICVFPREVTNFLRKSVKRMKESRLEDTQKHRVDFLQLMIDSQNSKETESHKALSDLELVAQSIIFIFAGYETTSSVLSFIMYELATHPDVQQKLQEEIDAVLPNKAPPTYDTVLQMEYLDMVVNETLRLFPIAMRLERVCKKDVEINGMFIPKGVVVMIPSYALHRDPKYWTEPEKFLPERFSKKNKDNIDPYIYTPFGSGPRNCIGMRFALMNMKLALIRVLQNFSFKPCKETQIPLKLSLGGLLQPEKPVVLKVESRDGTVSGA
- Method Notes: Time dependent inhibition of human CYP3A4 using testosterone as substrate by fluorescence plate reader analysis
- Type: ADME
Property Name: pIC50
# pIC50: negative log10 of molar concentration; output just the value

Write down pIC50 measured for item C[C@@]1(c2cc(NC(=O)c3ccc(C#N)cn3)ccc2F)Cn2c(C#N)cnc2C(N)=N1
6.57

---

- Method Notes: Free drug concentration in dog plasma measured after 4.5 hrs by HPLC-MS/MS method
- Assay type: ADME, cell-free, Canis lupus familiaris
Give fraction unbound at 4.5 h for every item shown.
Would you mind answering with just the numeric figure?

Write down fraction unbound at 4.5 h measured for item COc1cnc(C(=O)Nc2ccc(F)c([C@]3(C)Cn4nc(C#N)cc4C(N)=N3)c2)cn1
0.24

Write down fraction unbound at 4.5 h measured for item C[C@@]1(c2cc(NC(=O)c3ccc(C#N)cn3)ccc2F)Cn2c(C#N)cnc2C(N)=N1
0.32
